Each recorded value in this set is attributed to patent US20260083704A1.

Reported pEC50 values for the following compounds.
# target_under_test: LXRβ (Homo sapiens, UniProt P55055)
# Construct: LXRβ (amino acids 156-461); expressed in transfected cells; host or cells: HEK293
# Sequence (P55055 156-460): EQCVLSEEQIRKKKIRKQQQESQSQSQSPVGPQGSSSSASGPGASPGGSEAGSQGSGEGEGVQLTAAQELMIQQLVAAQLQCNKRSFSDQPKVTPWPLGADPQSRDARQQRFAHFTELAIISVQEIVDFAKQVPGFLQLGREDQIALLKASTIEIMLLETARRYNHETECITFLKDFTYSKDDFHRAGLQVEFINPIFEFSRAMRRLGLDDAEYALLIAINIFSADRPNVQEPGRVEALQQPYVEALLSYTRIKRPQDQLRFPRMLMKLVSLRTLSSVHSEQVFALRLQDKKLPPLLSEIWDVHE
# test_description: LXR Gal4 reporter transient transfection assay (mammalian two-hybrid, HEK293), LXRβ
# Assay type: cell-based
# measurement_context: ligand-binding domain (LBD) of LXRβ, HEK293; read-out: LBD-M2H Gal4β
pEC50: −log10 of the molar value.

| compound | readout_kind | result |
| --- | --- | --- |
| N#Cc1sccc1-c1c(-c2cccc(C3CC3C(=O)O)c2)n(S(=O)(=O)C2CC2)c2ccccc12 (stereo not drawn) [30/12] | pEC50 | 6.00 to 7.00 |

Q: For the record N#Cc1cc(F)ccc1-c1c(-c2cccs2)n(S(=O)(=O)c2ccc(Cl)cc2)c2ccccc12 [20/6] , what value of pEC50 is listed for LXRβ (Homo sapiens, UniProt P55055)?
Result: > 7.00

Q: Lab note: need pEC50 with LXRβ (Homo sapiens, UniProt P55055) for entry Cc1ccc(S(=O)(=O)n2c(-c3cccc(-c4cccc(C(C)(C)C(=O)O)c4)c3)c(-c3ccsc3C#N)c3ccccc32)cc1 [30/2] , please look it up.
Result: 6.00 to 7.00

Q: Param readout = pEC50; param system = LXRβ (Homo sapiens, UniProt P55055); param query = N#Cc1sccc1-c1c(-c2cccc(OCCC(=O)O)n2)n(S(=O)(=O)c2ccc(Cl)cc2)c2ccccc12 [Compound 31] ; response: value
Result: 6.00 to 7.00

Q: API: value(readout= pEC50, system= LXRβ (Homo sapiens, UniProt P55055), query= N#Cc1sccc1-c1c(-c2cccs2)n(S(=O)(=O)c2ccc(Cl)cc2)c2ccc(OCCCCC(=O)O)cc12 [15/2] )
Result: 6.00 to 7.00

Q: Any idea what pEC50 came out for N#Cc1nccnc1-c1c(-c2cccs2)n(S(=O)(=O)c2ccc(Cl)cc2)c2ccccc12 [20/7] on LXRβ (Homo sapiens, UniProt P55055)?
Result: > 7.00
